// pIC50 lookup, one value per entry
# ASSAY_METHOD_TEXT: Anticancer activity against patient-derived DB70 cells assessed as cell growth inhibition inhibition incubated for 3 days
# Type: functional, cell-based
# APPLIED_CONDITIONS: Homo sapiens, DB70, 72 h
Please keep in mind that pIC50 is minus log10 of the molar concentration; only the number is needed.

Use the examples below as a reference point.
# COMPOUND, MEASURED_VALUE
records = [
    ("CCC1=C(C)/C(=C/c2ccc(C(=O)NC(=N)N)cc2)CCC1(C)C", 5.75),
    ("CCC1=C(C)/C(=C/c2ccc(C(=O)Nc3nc4ccccc4s3)cc2)CCC1(C)C", 5.18),
]

Measured pIC50, Cn1nnc2c(C(N)=O)ncn2c1=O [TEMOZOLOMIDE] : 4.59

Measured pIC50, "CCC1=C(C)/C(=C/c2ccc(C3=NOB(c4ccccc4)N3)cc2)CCC1(C)C" : 4.87

* * *

# ASSAY_METHOD_TEXT: Anticancer activity against patient-derived DB93 cells assessed as cell growth inhibition incubated for 3 days
# Format: functional, cell-based
# APPLIED_CONDITIONS: Homo sapiens, DB93, 72 h
ATTRIBUTE_MEASURED: pIC50
Please keep in mind that pIC50 is minus log10 of the molar concentration; only the number is needed.

Measured pIC50, "CCC1=C(C)/C(=C/c2ccc(C(=O)NC(=N)N)cc2)CCC1(C)C" : 5.68

Measured pIC50, "CCC1=C(C)/C(=C/c2ccc(C(=O)Nc3nc4ccccc4s3)cc2)CCC1(C)C" : 5.45

Measured pIC50, "CCC1=C(C)/C(=C/c2ccc(C3=NOB(c4ccccc4)N3)cc2)CCC1(C)C" : 5.08

* * *

# Tested on: U-251
# ASSAY_METHOD_TEXT: Anticancer activity against human U-251 cells assessed as cell growth inhibition inhibition incubated for 3 days
# Type: functional, cell-based
# APPLIED_CONDITIONS: U-251, 72 h
ATTRIBUTE_MEASURED: IC50

Use the examples below as a reference point.
# MOLECULE, TESTED_TARGET, ATTRIBUTE_MEASURED, MEASURED_VALUE
rows = [
    ("CCC1=C(C)/C(=C/c2ccc(C(=O)Nc3ccc4[nH]c(C(F)(F)F)nc4c3)cc2)CCC1(C)C", "U-251", "IC50", "> 100 µM"),
    ("CCC1=C(C)/C(=C/c2ccc(-c3noc(-c4ccc(Br)cc4)n3)cc2)CCC1(C)C", "U-251", "IC50", "7 µM"),
    ("CCC1=C(C)/C(=C/c2ccc(C(=O)Nc3nccs3)cc2)CCC1(C)C", "U-251", "IC50", "> 100 µM"),
    ("CCC1=C(C)/C(=C/c2ccc(C3=NOB(c4ccccc4)N3)cc2)CCC1(C)C", "U-251", "IC50", "26.8 µM"),
    ("CCC1=C(C)/C(=C/c2ccc(C(=O)NC(=N)N)cc2)CCC1(C)C", "U-251", "IC50", "5.06 µM"),
    ("CCC1=C(C)/C(=C/c2ccc(/C(N)=N/O)cc2)CCC1(C)C", "U-251", "IC50", "56.8 µM"),
]

# evaluate next
Measured IC50, "CCC1=C(C)/C(=C/c2ccc(C(=O)Nc3ccc(O)cc3)cc2)CCC1(C)C" : > 100 µM

* * *

# ASSAY_METHOD_TEXT: Lipophilicity, logP of compound
# Format: physicochemical
# APPLIED_CONDITIONS: octanol/water; read-out: logP
// logP lookup, one value per entry
Just the number, please, no unit attached.

Use the examples below as a reference point.
# MOL_SMILES, ATTRIBUTE_MEASURED, MEASURED_VALUE
data = [
    ("CCC1=C(C)/C(=C/c2ccc(C#N)cc2)CCC1(C)C", "logP", 5.25),
    ("CCC1=C(C)/C(=C/c2ccc(C(=O)Nc3nc4ccccc4[nH]3)cc2)CCC1(C)C", "logP", 5.78),
    ("CCC1=C(C)/C(=C/c2ccc(C(=O)Nc3ccc(Cl)cc3Cl)cc2)CCC1(C)C", "logP", 7.14),
]

Measured logP, "CCC1=C(C)/C(=C/c2ccc(/C(N)=N/O)cc2)CCC1(C)C" : 4.53

Measured logP, "CCC1=C(C)/C(=C/c2ccc(C(=O)Nc3nc4ccccc4s3)cc2)CCC1(C)C" : 7.22

Measured logP, "CCC1=C(C)/C(=C/c2ccc(C(=O)Nc3ccc(OC(F)(F)F)cc3)cc2)CCC1(C)C" : 7.55

Measured logP, "CCC1=C(C)/C(=C/c2ccc(C(=O)Nc3ccc(O)cc3)cc2)CCC1(C)C" : 5.63

Measured logP, "CCC1=C(C)/C(=C/c2ccc(C(=O)Nc3nc4ccc(Br)cc4s3)cc2)CCC1(C)C" : 8.05

Measured logP, "CCC1=C(C)/C(=C/c2ccc(-c3noc(-c4cccnc4)n3)cc2)CCC1(C)C" : 6.22

Measured logP, "CCC1=C(C)/C(=C/c2ccc(-c3noc(-c4ccncc4)n3)cc2)CCC1(C)C" : 6.22

Measured logP, "CCC1=C(C)/C(=C/c2ccc(-c3noc(-c4ccc(Cl)cc4)n3)cc2)CCC1(C)C" : 8.12

* * *

# Tested on: U-251
# ASSAY_METHOD_TEXT: Anticancer activity against human U-251 cells assessed as cell growth inhibition inhibition incubated for 3 days
# Type: functional, cell-based
# APPLIED_CONDITIONS: U-251, 72 h
ATTRIBUTE_MEASURED: pIC50
Please keep in mind that pIC50 is minus log10 of the molar concentration; only the number is needed.

Use the examples below as a reference point.
# MOL_SMILES, pIC50
data = [
    ("CCC1=C(C)/C(=C/c2ccc(C(=O)Nc3nc4ccc(Br)cc4s3)cc2)CCC1(C)C", 4.12),
    ("CCC1=C(C)/C(=C/c2ccc(-c3noc(-c4cccnc4)n3)cc2)CCC1(C)C", 4.42),
    ("CCC1=C(C)/C(=C/c2ccc(-c3noc(-c4ccccc4OC(F)(F)F)n3)cc2)CCC1(C)C", 4.23),
]

// pIC50 (U-251) for "CCC1=C(C)/C(=C/c2ccc(C(=O)Nc3ccc(C(F)(F)F)cc3)cc2)CCC1(C)C" = 5.22

// pIC50 (U-251) for "CCC1=C(C)/C(=C/c2ccc(C(=O)Nc3ccc(OC(F)(F)F)cc3)cc2)CCC1(C)C" = 4.68

// pIC50 (U-251) for "CCC1=C(C)/C(=C/c2ccc(-c3noc(-c4ccc(Cl)cc4)n3)cc2)CCC1(C)C" = 5.00

// pIC50 (U-251) for "CCC1=C(C)/C(=C/c2ccc(C(=O)Nc3nc4ccccc4[nH]3)cc2)CCC1(C)C" = 5.35

// pIC50 (U-251) for "CCC1=C(C)/C(=C/c2ccc(C#N)cc2)CCC1(C)C" = 4.08

// pIC50 (U-251) for "CCC1=C(C)/C(=C/c2ccc(C(=O)Nc3nc4ccccc4s3)cc2)CCC1(C)C" = 4.71

* * *

# ASSAY_METHOD_TEXT: Lipophilicity, logP of compound
# Format: physicochemical
# APPLIED_CONDITIONS: octanol/water; read-out: logP
Could you mark each record y if its logP falls strictly under 6, and n if it equals or exceeds it?

# MOL_SMILES, LABEL_VALUE
measured = [
    ("CCC1=C(C)/C(=C/c2ccc(C3=NOB(c4ccccc4)N3)cc2)CCC1(C)C", "n"),
    ("CCC1=C(C)/C(=C/c2ccc(-c3noc(-c4ccc(Br)cc4)n3)cc2)CCC1(C)C", "n"),
    ("CCC1=C(C)/C(=C/c2ccc(C(=O)Nc3ccc(C(F)(F)F)cc3)cc2)CCC1(C)C", "n"),
    ("CCC1=C(C)/C(=C/c2ccc(C(=O)NC(=N)N)cc2)CCC1(C)C", "y"),
    ("CCC1=C(C)/C(=C/c2ccc(C(=O)Nc3ccc4[nH]c(C(F)(F)F)nc4c3)cc2)CCC1(C)C", "n"),
]

--- query ---
# TODO verify logP < 6 strictly for this compound: "CCC1=C(C)/C(=C/c2ccc(C(=O)Nc3nccs3)cc2)CCC1(C)C" y

Each recorded value in this set is attributed to ChEMBL document CHEMBL5321241.
